The values you see were collected from ChEMBL document CHEMBL3638939.

IC50 overview
molecular target: Sodium- and chloride-dependent glycine transporter 1 (Homo sapiens); test: Glycine Uptake Assay: [3H]-Glycine uptake into recombinant CHO cells expressing human GlyT1: Human GlyT1c expressing recombinant hGlyT1c_5_CHO cells were plated at 20,000 cells per well in 96 well Cytostar-T scintillation microplates (Amersham Biosciences) and cultured to sub-confluency for 24 h. For glycine uptake assays the culture medium was aspirated and the cells were washed once with 100 ul HBSS (Gibco BRL, #14025-050) with 5 mM L-Alanine (Merck #1007). 80 ul HBSS buffer were added, followed by 10 ul inhibitor or vehicle (10% DMSO) and 10 ul [3H]-glycine (TRK71, Amersham Biosciences) to a final concentration of 200 nM for initiation of glycine uptake. The plates were placed in a Wallac Microbeta (PerkinElmer) and continuously counted by solid phase scintillation spectrometry during up to 3 hours. Nonspecific uptake was determined in the presence of 10 uM Org2 4598. IC50 calculations were made by four-parametric logistic nonlinear regressi on analysis (GraphPad Prism).

compound="CCCS(=O)(=O)NCCOc1ccc2c(c1)C(C1(c3cccc(F)c3)CCC1)NCC2 (configuration not stated)" experimental_system="Sodium- and chloride-dependent glycine transporter 1 (Homo sapiens)" result="< 0.1 µM"

// field: IC50; key: O=C1c2ccccc2C(=O)N1CCS(=O)(=O)NCCOc1ccc2c(c1)C(C1(c3ccc(Cl)cc3)CCC1)NCC2 (configuration not stated) ; value = < 100 µM

====

Ki by entry:
target: Sodium- and chloride-dependent glycine transporter 1 (Homo sapiens, UniProt P48067); test: Radioligand Binding Assay: Radioligand binding to human GlyT1c transporter-expressing membranes was carried out as described in Mezler et al., Molecular Pharmacology 74:1705-1715, 2008.More specifically, [3H]-(R)-NPTS radioligand binding to human GlyT1c transporter-expressing membranes was measured in duplicate in a total volume of 200 ul in 96-well plates. To 100 ul of membrane suspension (yielding a final membrane protein concentration of 50 ug/ml) in assay buffer (120 mM NaCl, 2 mM KCl, 10 mM Hepes, 1 mM MgCl2, 1 mM CaCl2, pH 7.5) 80 ul of [3H]-(R)-NPTS (0.5 nM final) were added in assay buffer. For competition experiments 10 ul of buffer or unlabeled compound solution obtained from dilution series of test compounds in DMSO followed. An intermediate 1:10 dilution in assay buffer yielded a final DMSO concentration of 1%. Non-specific binding was determined in the presence of 10 uM Org24598 (or its racemate Org24461) for [3H]-(R)-NPTS.
Sequence (P48067 whole entry): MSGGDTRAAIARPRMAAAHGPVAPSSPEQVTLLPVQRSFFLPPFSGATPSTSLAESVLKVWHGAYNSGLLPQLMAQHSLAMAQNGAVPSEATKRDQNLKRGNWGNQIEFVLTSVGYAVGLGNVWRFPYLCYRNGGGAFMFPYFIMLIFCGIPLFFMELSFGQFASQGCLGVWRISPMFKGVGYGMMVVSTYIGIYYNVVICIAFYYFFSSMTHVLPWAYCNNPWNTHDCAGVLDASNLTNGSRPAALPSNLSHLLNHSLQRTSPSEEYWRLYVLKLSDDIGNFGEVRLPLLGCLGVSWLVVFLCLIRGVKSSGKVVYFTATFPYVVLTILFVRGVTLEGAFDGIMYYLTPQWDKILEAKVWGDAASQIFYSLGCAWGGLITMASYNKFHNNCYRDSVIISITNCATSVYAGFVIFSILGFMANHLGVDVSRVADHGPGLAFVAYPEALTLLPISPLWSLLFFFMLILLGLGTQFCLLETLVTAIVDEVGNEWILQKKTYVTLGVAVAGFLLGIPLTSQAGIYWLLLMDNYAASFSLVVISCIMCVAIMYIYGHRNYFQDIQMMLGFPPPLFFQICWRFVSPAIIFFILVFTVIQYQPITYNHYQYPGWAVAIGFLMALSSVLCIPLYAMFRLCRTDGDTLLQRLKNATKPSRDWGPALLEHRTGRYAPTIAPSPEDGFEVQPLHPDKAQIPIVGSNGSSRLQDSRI

compound="Cc1oncc1S(=O)(=O)NCCOc1ccc2c(c1)C(C1(c3ccc(Cl)cc3)CCC1)NCC2 (stereo not drawn)" observable=Ki result="< 10 µM"
compound="CCCS(=O)(=O)NCCOc1ccc2c(c1)C(C1(c3cccc(F)c3)CCC1)NCC2 (stereo not drawn)" observable=Ki result="< 0.1 µM"

Could you now look at the following compound, please?
Form: compound = O=C1c2ccccc2C(=O)N1CCS(=O)(=O)NCCOc1ccc2c(c1)C(C1(c3ccc(Cl)cc3)CCC1)NCC2 (stereo not drawn) ; Ki = < 10 µM
